- Test system: Rattus norvegicus
- protocol details: Antihyperlipidemic activity in Triton-induced dyslipidemic Wistar rat model assessed as reduction in phospholipid level at 100 mg/kg, po
- Assay type: functional
- Set-up: scale not given: the % may be the effect or the level left
Rule: Activity under 10% gives Not met, otherwise Met.

COc1cc(-c2cc(=O)c3ccc(OCC(O)CN4CCN(c5ccccc5)CC4)cc3o2)cc(OC)c1OC (stereo not drawn) : Not met
COc1cc(OC)cc(-c2cc(=O)c3ccc(OCC(O)CNC(C)C)cc3o2)c1 (stereo not drawn) : Met
Cc1ccc(COc2cc(OCc3ccc(C)cc3)cc(-c3cc(=O)c4ccc(OCC(O)CNC(C)(C)C)cc4o3)c2)cc1 (stereo not drawn) : Met
CC(C)NCC(O)COc1ccc2c(=O)cc(-c3cc(O)cc(O)c3)oc2c1 (racemic) : Met

Query :: Test whether the compound CC(C)(C)NCC(O)COc1ccc2c(=O)cc(-c3cc(O)cc(O)c3)oc2c1 (stereo not drawn) records Activity of 10% or higher.
Result :: Not met

Query :: Please check the record CC(C)(C)NCC(O)COc1ccc2oc(-c3ccc(O)c(O)c3)cc(=O)c2c1 (stereo not drawn) and state if its Activity is at or above 10%.
Result :: Met

Query :: Identify whether the reported Activity of the following compound is 10% or greater: CC(C)(C)NCC(O)COc1ccc2c(=O)cc(-c3cc(OCc4ccccc4Cl)cc(OCc4ccccc4Cl)c3)oc2c1 (stereo not drawn)
Result :: Met

Query :: API: above_or_equal(metric=Activity, cutoff=10%) for item CC(C)NCC(O)COc1ccc2c(=O)cc(-c3cc(OCc4cc(Cl)cc(Cl)c4)cc(OCc4cc(Cl)cc(Cl)c4)c3)oc2c1 (stereo not drawn)
Result :: Met

Query :: Exam item: decide whether the reported Activity for Cc1ccc(COc2cc(OCc3ccc(C)cc3)cc(-c3cc(=O)c4ccc(OCC(O)CNCc5ccccc5)cc4o3)c2)cc1 (stereo not drawn) is at least 10%.
Result :: Met

Query :: Could you verify whether the entry CC(C)NCC(O)COc1ccc2c(=O)cc(-c3cc(OCc4ccccc4)cc(OCc4ccccc4)c3)oc2c1 (stereo not drawn) shows Activity of no less than 10%?
Result :: Not met

Query :: Decide: is the reported value of Activity for COc1cc(-c2cc(=O)c3ccc(OCC(O)CNC(C)C)cc3o2)cc(OC)c1OC (stereo not drawn) equal to or greater than 10%?
Result :: Met

Query :: Has CC(C)NCC(O)COc1ccc2c(=O)cc(-c3ccc(O)c(O)c3)oc2c1 (stereo not drawn) a recorded Activity greater than or equal to 10%?
Result :: Met

Query :: Does the reported Activity for Cc1ccccc1COc1cc(OCc2ccccc2C)cc(-c2cc(=O)c3ccc(OCC(O)CNC(C)(C)C)cc3o2)c1 (stereo not drawn) fall at or above the 10% mark?
Result :: Met

Query :: Item CN(C)C(=N)NC(=N)N [METFORMIN] with Activity of 10% or above?
Result :: Not met

Query :: # bool: Activity of COc1cc(OC)cc(-c2cc(=O)c3ccc(OCC(O)CNC(C)(C)C)cc3o2)c1 (stereo not drawn) >= 10%
Result :: Met

Query :: Reported Activity reaches at least 10% for CC(C)OC(=O)C(C)(C)Oc1ccc(C(=O)c2ccc(Cl)cc2)cc1 [FENOFIBRATE] ?
Result :: Met

Query :: Assess whether reported Activity for CC(C)NCC(O)COc1ccc2c(=O)cc(-c3ccc(OCc4ccccc4)c(OCc4ccccc4)c3)oc2c1 (stereo not drawn) sits at 10% or higher.
Result :: Not met

Query :: Quick check: does CC(C)(C)NCC(O)COc1ccc2c(=O)cc(-c3ccc(OCc4ccccc4)c(OCc4ccccc4)c3)oc2c1 (stereo not drawn) have Activity greater than or equal to 10%?
Result :: Met
